target: Insulin-like growth factor 1 receptor (IGF1R) (UniProt P08069 31-1367, limits assumed); test: cell-based or functional assay
Sequence (P08069 31-1367 limits assumed): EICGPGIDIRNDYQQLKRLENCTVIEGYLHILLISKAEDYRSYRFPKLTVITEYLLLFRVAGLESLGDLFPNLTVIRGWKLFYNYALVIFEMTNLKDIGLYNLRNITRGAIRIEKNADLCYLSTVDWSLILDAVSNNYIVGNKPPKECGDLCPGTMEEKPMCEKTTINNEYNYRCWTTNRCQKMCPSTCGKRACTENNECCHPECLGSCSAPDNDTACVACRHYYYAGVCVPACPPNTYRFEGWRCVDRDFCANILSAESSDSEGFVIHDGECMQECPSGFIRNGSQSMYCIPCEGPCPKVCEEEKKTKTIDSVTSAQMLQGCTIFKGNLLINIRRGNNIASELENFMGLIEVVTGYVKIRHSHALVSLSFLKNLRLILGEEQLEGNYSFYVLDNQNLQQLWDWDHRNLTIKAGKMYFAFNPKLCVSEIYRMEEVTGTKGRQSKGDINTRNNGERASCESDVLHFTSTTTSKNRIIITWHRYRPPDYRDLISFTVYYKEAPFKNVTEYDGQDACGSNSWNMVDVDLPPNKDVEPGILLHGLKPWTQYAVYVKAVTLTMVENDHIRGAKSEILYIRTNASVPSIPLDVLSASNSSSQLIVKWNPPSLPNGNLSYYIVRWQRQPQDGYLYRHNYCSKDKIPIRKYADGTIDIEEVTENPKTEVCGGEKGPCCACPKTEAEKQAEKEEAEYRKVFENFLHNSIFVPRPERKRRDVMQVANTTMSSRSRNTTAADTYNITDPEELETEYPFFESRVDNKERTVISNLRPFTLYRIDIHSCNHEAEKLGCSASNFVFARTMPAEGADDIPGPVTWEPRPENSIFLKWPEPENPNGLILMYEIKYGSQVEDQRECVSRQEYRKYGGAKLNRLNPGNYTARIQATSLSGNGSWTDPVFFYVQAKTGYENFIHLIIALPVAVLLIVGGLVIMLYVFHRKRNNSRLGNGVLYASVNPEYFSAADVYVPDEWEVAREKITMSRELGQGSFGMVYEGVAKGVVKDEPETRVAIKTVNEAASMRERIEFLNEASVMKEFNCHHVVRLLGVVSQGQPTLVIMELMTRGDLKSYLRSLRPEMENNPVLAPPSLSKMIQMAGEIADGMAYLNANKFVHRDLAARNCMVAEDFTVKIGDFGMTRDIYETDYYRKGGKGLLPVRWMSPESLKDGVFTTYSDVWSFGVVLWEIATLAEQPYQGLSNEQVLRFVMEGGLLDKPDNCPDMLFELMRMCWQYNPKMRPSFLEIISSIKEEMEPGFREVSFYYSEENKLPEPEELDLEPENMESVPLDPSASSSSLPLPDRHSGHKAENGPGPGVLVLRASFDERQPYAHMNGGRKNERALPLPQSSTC
The star is where a group is joined. Palmitoyl = CCCCCCCCCCCCCCCC(=O)*
Listing of recorded GI50 (µM), MTT assay, MCF-7 cells by entry.

Guide cases for GI50 (µM), MTT assay, MCF-7 cells, answers given:
[[record]]
binder = "Palmitoyl-HRKRNNSRLGNGV-NH2 (SMILES CCCCCCCCCCCCCCCC(=O)N[C@@H](Cc1c[nH]cn1)C(=O)N[C@@H](CCCNC(=N)N)C(=O)N[C@@H](CCCCN)C(=O)N[C@@H](CCCNC(=N)N)C(=O)N[C@@H](CC(N)=O)C(=O)N[C@@H](CC(N)=O)C(=O)N[C@@H](CO)C(=O)N[C@@H](CCCNC(=N)N)C(=O)N[C@@H](CC(C)C)C(=O)NCC(=O)N[C@@H](CC(N)=O)C(=O)NCC(=O)N[C@H](C(N)=O)C(C)C) [peptide 11 (Pal-HRKRNNSRLGNGV-NH2)]"
quantity_measured = "GI50 (µM), MTT assay, MCF-7 cells"
result = "2.5 µM"

[[record]]
binder = "Palmitoyl-HRKRNNSRLGNGVL-NH2 (SMILES CCCCCCCCCCCCCCCC(=O)N[C@@H](Cc1c[nH]cn1)C(=O)N[C@@H](CCCNC(=N)N)C(=O)N[C@@H](CCCCN)C(=O)N[C@@H](CCCNC(=N)N)C(=O)N[C@@H](CC(N)=O)C(=O)N[C@@H](CC(N)=O)C(=O)N[C@@H](CO)C(=O)N[C@@H](CCCNC(=N)N)C(=O)N[C@@H](CC(C)C)C(=O)NCC(=O)N[C@@H](CC(N)=O)C(=O)NCC(=O)N[C@H](C(=O)N[C@@H](CC(C)C)C(N)=O)C(C)C) [peptide 10 (Pal-HRKRNNSRLGNGVL-NH2)]"
quantity_measured = "GI50 (µM), MTT assay, MCF-7 cells"
result = "1.8 µM"

[[record]]
binder = "Palmitoyl-NSRLGNGVLY-NH2 (SMILES CCCCCCCCCCCCCCCC(=O)N[C@@H](CC(N)=O)C(=O)N[C@@H](CO)C(=O)N[C@@H](CCCNC(=N)N)C(=O)N[C@@H](CC(C)C)C(=O)NCC(=O)N[C@@H](CC(N)=O)C(=O)NCC(=O)N[C@H](C(=O)N[C@@H](CC(C)C)C(=O)N[C@@H](Cc1ccc(O)cc1)C(N)=O)C(C)C) [peptide 17 (Pal-NSRLGNGVLY-NH2)]"
quantity_measured = "GI50 (µM), MTT assay, MCF-7 cells"
result = "0.2 µM"


# next binder below
Provide measured GI50 (µM), MTT assay, MCF-7 cells value, entry: Palmitoyl-HRKRNNSRLGNGVLYA-NH2 (SMILES CCCCCCCCCCCCCCCC(=O)N[C@@H](Cc1c[nH]cn1)C(=O)N[C@@H](CCCNC(=N)N)C(=O)N[C@@H](CCCCN)C(=O)N[C@@H](CCCNC(=N)N)C(=O)N[C@@H](CC(N)=O)C(=O)N[C@@H](CC(N)=O)C(=O)N[C@@H](CO)C(=O)N[C@@H](CCCNC(=N)N)C(=O)N[C@@H](CC(C)C)C(=O)NCC(=O)N[C@@H](CC(N)=O)C(=O)NCC(=O)N[C@H](C(=O)N[C@@H](CC(C)C)C(=O)N[C@@H](Cc1ccc(O)cc1)C(=O)N[C@@H](C)C(N)=O)C(C)C) [peptide 8 (Pal-HRKRNNSRLGNGVLYA-NH2)]
1.4 µM
